# key: entry, value: IC50
Target: HDAC1 (Homo sapiens)
Sequence (Q13547 whole entry): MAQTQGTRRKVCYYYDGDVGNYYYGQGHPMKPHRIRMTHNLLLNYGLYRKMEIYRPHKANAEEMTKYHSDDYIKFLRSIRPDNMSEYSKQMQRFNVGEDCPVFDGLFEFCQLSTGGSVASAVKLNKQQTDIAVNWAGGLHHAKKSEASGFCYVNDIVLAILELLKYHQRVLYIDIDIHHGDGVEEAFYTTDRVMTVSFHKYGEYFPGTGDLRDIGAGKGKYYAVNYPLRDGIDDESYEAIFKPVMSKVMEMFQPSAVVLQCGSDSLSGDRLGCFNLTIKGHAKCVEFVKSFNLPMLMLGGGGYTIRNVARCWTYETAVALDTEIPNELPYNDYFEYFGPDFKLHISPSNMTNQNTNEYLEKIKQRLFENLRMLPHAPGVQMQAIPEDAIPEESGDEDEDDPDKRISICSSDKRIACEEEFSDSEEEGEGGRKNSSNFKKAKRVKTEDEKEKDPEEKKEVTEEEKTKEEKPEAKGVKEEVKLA
Give the value in µM but do not write µM after it.

# count of solved cases: 2
mol-smiles	data-value
CC1(C)CCC(CN2CCN(c3ccc(C(=O)NS(=O)(=O)c4ccc(NCCNC(=O)c5ccc(C(=O)NO)cc5)c([N+](=O)[O-])c4)c(Oc4cnc5[nH]ccc5c4)c3)CC2)=C(c2ccc(Cl)cc2)C1	11.6
CC1(C)CCC(CN2CCN(c3ccc(C(=O)NS(=O)(=O)c4ccc(NCc5ccc(C(=O)Nc6ccccc6N)cc5)c([N+](=O)[O-])c4)c(Oc4cnc5[nH]ccc5c4)c3)CC2)=C(c2ccc(Cl)cc2)C1	2.88

Return reported IC50 for target or system HDAC1 (Homo sapiens), item CC1(C)CCC(CN2CCN(c3ccc(C(=O)NS(=O)(=O)c4ccc(NCCNc5ncc(C(=O)NO)cn5)c([N+](=O)[O-])c4)c(Oc4cnc5[nH]ccc5c4)c3)CC2)=C(c2ccc(Cl)cc2)C1 .
0.463

###

# key: entry, value: IC50
Tested on: MOLM14 cells
Assay: alamarBlue cell metabolism/viability assay, MOLM14
Type: cell-based
Conditions: Homo sapiens, MOLM-14, at least triplicate, errors are SEMs, read-out: IC50 MOLM‐14
Give the value in µM but do not write µM after it.

molecule	unit-abbrev	data-value
CC1(C)CCC(CN2CCN(c3ccc(C(=O)NS(=O)(=O)c4ccc(NCC5CCOCC5)c([N+](=O)[O-])c4)c(Oc4cnc5[nH]ccc5c4)c3)CC2)=C(c2ccc(Cl)cc2)C1 [Venetoclax, venetoclax, reference compound]	µM	1.72

Now take the following molecule into account.
Give the reported value of IC50 for this record: CC1(C)CCC(CN2CCN(c3ccc(C(=O)NS(=O)(=O)c4ccc(NCc5ccc(C(=O)Nc6ccccc6N)cc5)c([N+](=O)[O-])c4)c(Oc4cnc5[nH]ccc5c4)c3)CC2)=C(c2ccc(Cl)cc2)C1
1.63

###

Molecular target: HDAC6 (Homo sapiens, UniProt Q9UBN7)
Sequence (Q9UBN7 whole entry): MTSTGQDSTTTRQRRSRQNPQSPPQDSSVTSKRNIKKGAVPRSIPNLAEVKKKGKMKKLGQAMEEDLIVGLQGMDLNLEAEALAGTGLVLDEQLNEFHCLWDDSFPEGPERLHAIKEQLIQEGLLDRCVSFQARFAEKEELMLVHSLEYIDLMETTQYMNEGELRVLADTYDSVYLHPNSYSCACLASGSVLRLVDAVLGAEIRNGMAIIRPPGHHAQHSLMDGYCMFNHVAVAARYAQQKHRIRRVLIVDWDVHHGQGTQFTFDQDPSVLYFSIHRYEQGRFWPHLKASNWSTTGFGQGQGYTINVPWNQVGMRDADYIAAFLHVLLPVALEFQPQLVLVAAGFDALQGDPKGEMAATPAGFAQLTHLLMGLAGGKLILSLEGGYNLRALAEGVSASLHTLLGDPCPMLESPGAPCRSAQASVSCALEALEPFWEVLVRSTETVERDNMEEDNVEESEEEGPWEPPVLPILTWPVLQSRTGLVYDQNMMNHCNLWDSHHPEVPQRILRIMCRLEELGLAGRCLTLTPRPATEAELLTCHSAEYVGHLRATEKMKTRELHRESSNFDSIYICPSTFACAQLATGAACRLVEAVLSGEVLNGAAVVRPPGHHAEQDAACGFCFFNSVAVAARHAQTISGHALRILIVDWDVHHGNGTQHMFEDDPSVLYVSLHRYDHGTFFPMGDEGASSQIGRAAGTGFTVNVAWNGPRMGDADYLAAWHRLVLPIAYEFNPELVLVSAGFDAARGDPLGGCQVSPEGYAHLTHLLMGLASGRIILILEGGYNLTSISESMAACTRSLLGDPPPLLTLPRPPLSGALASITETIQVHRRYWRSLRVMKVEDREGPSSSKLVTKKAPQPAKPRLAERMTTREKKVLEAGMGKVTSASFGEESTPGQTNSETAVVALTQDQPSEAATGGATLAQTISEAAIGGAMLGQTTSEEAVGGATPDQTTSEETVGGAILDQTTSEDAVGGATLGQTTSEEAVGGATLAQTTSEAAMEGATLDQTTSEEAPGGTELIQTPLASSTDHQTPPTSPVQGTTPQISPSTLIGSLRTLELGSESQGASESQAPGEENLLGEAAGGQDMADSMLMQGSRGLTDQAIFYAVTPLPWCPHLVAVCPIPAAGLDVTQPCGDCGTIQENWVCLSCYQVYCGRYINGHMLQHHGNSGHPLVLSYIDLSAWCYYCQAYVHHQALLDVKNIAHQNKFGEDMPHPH
Assay: HDAC6 fluorogenic assay (BPS Bioscience 50076, run by Nanosyn)
Details: ratio of IC50 values
# key: entry, value: selectivity for HDAC6 over HDAC1 (HDAC6/1 selectivity)

# count of solved cases: 3
compound	data-value
CC1(C)CCC(CN2CCN(c3ccc(C(=O)NS(=O)(=O)c4ccc(NCCNC(=O)c5ccc(C(=O)NO)cc5)c([N+](=O)[O-])c4)c(Oc4cnc5[nH]ccc5c4)c3)CC2)=C(c2ccc(Cl)cc2)C1 [SF‐8‐083]	~ 30 fold
CC1(C)CCC(CN2CCN(c3ccc(C(=O)NS(=O)(=O)c4ccc(NCCNc5ncc(C(=O)NO)cn5)c([N+](=O)[O-])c4)c(Oc4cnc5[nH]ccc5c4)c3)CC2)=C(c2ccc(Cl)cc2)C1 [BD‐4‐208]	~ 3 fold
CC1(C)CCC(CN2CCN(c3ccc(C(=O)NS(=O)(=O)c4ccc(NCC5CCN(c6ccc(C(=O)NO)cc6)CC5)c([N+](=O)[O-])c4)c(Oc4cnc5[nH]ccc5c4)c3)CC2)=C(c2ccc(Cl)cc2)C1 [AMC‐4‐154]	> 3 fold

Return reported selectivity for HDAC6 over HDAC1 (HDAC6/1 selectivity) for target or system HDAC6 (Homo sapiens, UniProt Q9UBN7), item CC1(C)CCC(CN2CCN(c3ccc(C(=O)NS(=O)(=O)c4ccc(NCc5ccc(C(=O)NO)cc5)c([N+](=O)[O-])c4)c(Oc4cnc5[nH]ccc5c4)c3)CC2)=C(c2ccc(Cl)cc2)C1 [SF‐8‐038] .
> 80 fold
